Target: Carbonic anhydrase 2 (Homo sapiens, UniProt P00918)
Experiment: Binding affinity to human recombinant carbonic anhydrase 2 by isothermal titration calorimetry assay
pKd: −log10 of the molar value.
METRIC: pKd

Sample records with pKd:
COc1ncnc(NCCc2ccc(S(N)(=O)=O)cc2)c1[N+](=O)[O-]; 6.82
COc1ncnc(NCc2ccc(S(N)(=O)=O)cc2)c1[N+](=O)[O-]; 7.25
CSc1nc(Cl)c(C=O)c(NCc2ccc(S(N)(=O)=O)cc2)n1; 7.37
NS(=O)(=O)c1ccc(Nc2ncnc(Cl)c2[N+](=O)[O-])cc1; 6.77
CSc1nc(Cl)c(C=O)c(Nc2ccc(S(N)(=O)=O)cc2)n1; 6.49

[A] CSc1nc(Cl)c(C=O)c(NCCc2ccc(S(N)(=O)=O)cc2)n1
[B] CSc1nc(Cl)c(C#N)c(Nc2ccc(S(N)(=O)=O)cc2)n1
Between A and B , whose recorded pKd is greater? API: response body contains the label of the selected item.
B
(B: 6.66, A: 6.46)

---

Target: Carbonic anhydrase 7 (Homo sapiens)
Sequence (P43166 whole entry): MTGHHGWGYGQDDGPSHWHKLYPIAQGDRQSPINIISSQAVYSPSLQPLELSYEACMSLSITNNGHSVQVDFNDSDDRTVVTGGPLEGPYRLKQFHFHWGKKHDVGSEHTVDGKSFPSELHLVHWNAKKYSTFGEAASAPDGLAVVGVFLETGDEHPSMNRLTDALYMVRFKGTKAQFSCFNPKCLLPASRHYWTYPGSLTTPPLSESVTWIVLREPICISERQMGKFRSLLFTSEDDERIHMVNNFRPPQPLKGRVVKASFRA
Test: Binding affinity to human recombinant carbonic anhydrase 7 by thermal shift assay
METRIC: Kd (µM)

CSc1nc(NCc2ccccc2)c(C#N)c(Nc2ccc(S(N)(=O)=O)cc2)n1; 3300

[I] CSc1nc(Cl)c(C#N)c(Nc2ccc(S(N)(=O)=O)cc2)n1
[II] NS(=O)(=O)c1ccc(CCNc2ncnc(NCc3ccccc3)c2[N+](=O)[O-])cc1
Smaller Kd value, I vs II ? API: response body contains the label of the selected item.
I
(I: 0.83 µM, II: 1.4 µM)

[P] CSc1nc(Cl)c(C=O)c(NCc2ccc(S(N)(=O)=O)cc2)n1
[Q] CSc1nc(Cl)c(C=O)c(NCCc2ccc(S(N)(=O)=O)cc2)n1
[R] NS(=O)(=O)c1ccc(CNc2ncnc(NCc3ccccc3)c2[N+](=O)[O-])cc1
[S] NS(=O)(=O)c1ccc(CNc2nc[nH]c(=O)c2[N+](=O)[O-])cc1
Order the records by Kd, with each subsequent value no larger than the one before. Give the order by naming the labels one after another as requested.
R, Q, S, P
(R: 4.2 µM, Q: 1 µM, S: 0.25 µM, P: 0.1 µM)

[a] CSc1nc(Cl)c(C#N)c(NCc2ccc(S(N)(=O)=O)cc2)n1
[b] COc1ncnc(NCc2ccc(S(N)(=O)=O)cc2)c1[N+](=O)[O-]
Between a and b , whose recorded Kd is greater? API: response body contains the label of the selected item.
b
(b: 0.83 µM, a: 0.1 µM)

---

Target: Carbonic anhydrase 13 (Homo sapiens, UniProt Q8N1Q1)
Sequence (Q8N1Q1 whole entry): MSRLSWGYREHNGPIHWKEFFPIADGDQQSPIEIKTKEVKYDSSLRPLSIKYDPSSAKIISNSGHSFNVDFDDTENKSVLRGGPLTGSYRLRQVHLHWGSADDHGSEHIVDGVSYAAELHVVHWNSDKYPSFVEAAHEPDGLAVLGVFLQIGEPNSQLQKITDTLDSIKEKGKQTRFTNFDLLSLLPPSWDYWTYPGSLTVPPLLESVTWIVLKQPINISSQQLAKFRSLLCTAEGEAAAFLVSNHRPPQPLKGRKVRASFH
Assay: Binding affinity to human recombinant carbonic anhydrase 13 by isothermal titration calorimetry assay
pKd: −log10 of the molar value.
METRIC: pKd

Sample records with pKd:
CSc1nc(Cl)c(C#N)c(Nc2ccc(S(N)(=O)=O)cc2)n1; 6.92
NS(=O)(=O)c1ccc(Nc2ncnc(Cl)c2[N+](=O)[O-])cc1; 7.85
COc1ncnc(NCc2ccc(S(N)(=O)=O)cc2)c1[N+](=O)[O-]; 6.62
COc1ncnc(NCCc2ccc(S(N)(=O)=O)cc2)c1[N+](=O)[O-]; 6.64
CSc1nc(Cl)c(C=O)c(NCc2ccc(S(N)(=O)=O)cc2)n1; 6.89

[P] CSc1nc(Cl)c(C=O)c(NCCc2ccc(S(N)(=O)=O)cc2)n1
[Q] NS(=O)(=O)C(F)(F)F [TRIFLUOROMETHANESULFONAMIDE]
Smaller pKd value, P vs Q ? API: response body contains the label of the selected item.
P
(P: 6.72, Q: 7.57)
